The following compounds are listed with their measured pIC50 values.
# Test system: HeLa
# Assay procedure: Antiproliferative activity against human HeLa cells after 48 hrs by MTT assay
# Format: functional, cell-based
pIC50: −log10 of the molar value.
Quantity name: pIC50

1) C/C=C(\C)[C@H](O)[C@H](C)/C=C(C)/C=C/C/C(C)=C/Cc1nc(OC)c(OC)c(O[C@@H]2O[C@@H](C)[C@@H](O)[C@@H](O)[C@H]2O)c1C
4.56
2) C/C=C(\C)[C@H](O)[C@H](C)/C=C(C)/C=C/C/C(C)=C/Cc1nc(OC)c(OC)c(O)c1C
4.07
3) COc1cccc2c1C(=O)c1c(O)c3c(c(O)c1C2=O)C[C@@](O)(C(=O)CO)C[C@@H]3O[C@H]1C[C@H](N)[C@H](O)[C@H](C)O1
6.22
4) C/C1=C/C=C\C=C\[C@H](C)[C@@H](O)CC(=O)/C(C)=C/C[C@H](O)/C=C/[C@H](C)[C@H](O)[C@@H](C)/C=C(\C)C(=O)c2c(O)c(C)cc3c2C(=O)C(Cl)=C(NC1=O)C3=O
4.52
5) C/C(=C\[C@H](C)[C@@H](O)[C@@H](C)/C=C/[C@@H](O)C/C=C(\C)C(=O)C[C@H](O)[C@@H](C)/C=C/C=C\C=C/C(=O)NC1=C(Cl)C(=O)c2cc(O)c(C)cc2C1=O)C(=O)O
4.15
6) CC(=O)NC1=CC(=O)c2cc(O[C@@H]3O[C@@H](C)[C@@H](O)[C@@H](O)[C@H]3O)c(C)cc2C1=O
4.46
